- System: Pasteurella multocida 17E
- experiment.summary: broth-dilution microtiter MIC test
- Type: cell-based
- condition.notes: Pasteurella multocida, 17E; broth-dilution microtiter; Bovine isolate; read-out: MIC
Entries and their MIC values follow.

Examples from the recorded data:
molecule	MIC
CCC1OC(=O)CC(O)C(C)C(OC2OC(C)C(O)C(N(C)C)C2O)C(CC=O)CC(C)C(=O)C=CC(C)=CC1COC1OC(C)C(OC(=O)CC(C)C)C(OC(=O)CC(C)C)C1OC (centres unmarked)	> 50 µg/mL
CCC1OC(=O)CC(O)C(C)C(OC2OC(C)C(OC3CC(C)(O)C(O)C(C)O3)C(N(C)C)C2OC(C)=O)C(CC=O)CC(C)C(=O)C=CC(C)=CC1COC1OC(C)C(OC(C)=O)C(OC(=O)COc2ccccc2)C1OC (centres unmarked)	> 50 µg/mL
CCC1OC(=O)CC(O)C(C)C(OC2OC(C)C(OC3CC(C)(O)C(O)C(C)O3)C(N(C)C)C2OC(C)=O)C(CC=O)CC(C)C(=O)C=CC(C)=CC1COC1OC(C)C(OC(C)=O)C(OC(C)=O)C1OC (centres unmarked)	> 50 µg/mL
CCC1OC(=O)CC(O)C(C)C(OC2OC(C)C(OC3CC(C)(O)C(O)C(C)O3)C(N(C)C)C2OC(C)=O)C(CC=O)CC(C)C(=O)C=CC(C)=CC1COC1OC(C)C(OC(=O)COc2ccccc2)C(OC(=O)COc2ccccc2)C1OC (centres unmarked)	> 50 µg/mL
CCC1OC(=O)CC(O)C(C)C(OC2OC(C)C(OC3CC(C)(O)C(O)C(C)O3)C(N(C)C)C2OC(C)=O)C(CC=O)CC(C)C(=O)C=CC(C)=CC1COC1OC(C)C2OC(=O)OC2C1OC (centres unmarked)	12.5 µg/mL

Item CCC1OC(=O)CC(O)C(C)C(OC2OC(C)C(OC3CC(C)(O)C(O)C(C)O3)C(N(C)C)C2OC(C)=O)C(CC=O)CC(C)C(=O)C=CC(C)=CC1COC1OC(C)C(OC(=O)CC(C)C)C(O)C1OC (centres unmarked) has what recorded MIC?
> 50 µg/mL

Item CCC1OC(=O)CC(O)C(C)C(OC2OC(C)C(OC3CC(C)(O)C(O)C(C)O3)C(N(C)C)C2OC(C)=O)C(CC=O)CC(C)C(=O)C=CC(C)=CC1COC1OC(C)C(OC(=O)CC(C)C)C(OC(=O)CC(C)C)C1OC (centres unmarked) has what recorded MIC?
> 50 µg/mL

Item CCC1OC(=O)CC(O)C(C)C(OC2OC(C)C(O)C(N(C)C)C2OC(C)=O)C(CC=O)CC(C)C(=O)C=CC(C)=CC1COC1OC(C)C(OC(=O)COc2ccccc2)C(O)C1OC (centres unmarked) has what recorded MIC?
12.5 µg/mL

###

Entries and their MIC values follow.
- Test system: Staphylococcus aureus 19C
- experiment.summary: broth-dilution microtiter MIC test
- Assay type: cell-based
- condition.notes: Staphylococcus aureus, 19C
# value in µg/mL; strip the unit string

molecule	number
CCC1OC(=O)CC(O)C(C)C(OC2OC(C)C(OC3CC(C)(O)C(O)C(C)O3)C(N(C)C)C2OC(C)=O)C(CC=O)CC(C)C(=O)C=CC(C)=CC1COC1OC(C)C(OC(=O)COc2ccccc2)C(OC(=O)COc2ccccc2)C1OC (centres unmarked)	25

Next up:
Item CCC1OC(=O)CC(O)C(C)C(OC2OC(C)C(O)C(N(C)C)C2O)C(CC=O)CC(C)C(=O)C=CC(C)=CC1COC1OC(C)C(O)C(OC(=O)Cc2ccccc2)C1OC (centres unmarked) has what recorded MIC?
1.56

###

Entries and their MIC values follow.
- System: Haemophilus influenzae C.L.
- experiment.summary: standard agar-dilution MIC assay
- Assay type: cell-based
- condition.notes: Haemophilus influenzae
# value in µg/mL; strip the unit string

Examples from the recorded data:
compound	MIC, µg/mL
CCC1OC(=O)CC(O)C(C)C(OC2OC(C)C(O)C(N(C)C)C2O)C(CCOc2ccccc2)CC(C)C(=O)C=CC(C)=CC1COC1OC(C)C=CC1OC (stereo not drawn)	32
CCC1OC(=O)CC(O)C(C)C(OC2OC(C)C(O)C(N(C)C)C2O)C(CCOc2ccccc2)CC(C)C(=O)C=CC(C)=CC1COC1OC(C)C2OC(=O)OC2C1OC (stereo not drawn)	64
CCC1OC(=O)CC(O)C(C)C(OC2OC(C)C(O)C(N(C)C)C2O)C(CC=O)CC(C)C(=O)C=CC(C)=CC1COC1OC(C)C(OC(=O)Cc2ccccc2)C(O)C1OC (stereo not drawn)	8
CCC1OC(=O)CC(O)C(C)C(OC2OC(C)C(OC3CC(C)(O)C(O)C(C)O3)C(N(C)C)C2O)C(CC=O)CC(C)C(=O)C=CC(C)=CC1COC1OC(C)C2OC(=O)OC2C1OC (stereo not drawn) [Compound 49, Macrocin-3'",4'"-Carbonate Derivative]	32
CCC1OC(=O)CC(O)C(C)C(OC2OC(C)C(O)C(N(C)C)C2O)C(CC=O)CC(C)C(=O)C=CC(C)=CC1COC1OC(C)C(OC(=O)COc2ccccc2)C(OC(=O)COc2ccccc2)C1OC (stereo not drawn)	32

Identify the measured MIC of CCC1OC(=O)CC(O)C(C)C(OC2OC(C)C(O)C(N(C)C)C2O)C(CC=O)CC(C)C(=O)C=CC(C)=CC1COC1OC(C)C(O)C(OC(=O)Cc2ccccc2)C1OC (stereo not drawn) for Haemophilus influenzae C.L..
8

###

- Tested on: Pasteurella hemolytica 41D
- experiment.summary: broth-dilution microtiter MIC test
- Type: cell-based
- condition.notes: Pasteurella, 41D
experimental.endpoint: MIC (µg/mL)
# value in µg/mL; strip the unit string

Examples from the recorded data:
compound	MIC, µg/mL
CCC1OC(=O)CC(O)C(C)C(OC2OC(C)C(O)C(N(C)C)C2O)C(CC=O)CC(C)C(=O)C=CC(C)=CC1COC1OC(C)C(OC(=O)Cc2ccccc2)C(O)C1OC (centres unmarked)	50
CCC1OC(=O)CC(O)C(C)C(OC2OC(C)C(O)C(N(C)C)C2OC(C)=O)C(CC=O)CC(C)C(=O)C=CC(C)=CC1COC1OC(C)C(OC(C)=O)C(OC(=O)COc2ccccc2)C1OC (centres unmarked)	25
CCC1OC(=O)CC(O)C(C)C(OC2OC(C)C(O)C(N(C)C)C2O)C(CC=O)CC(C)C(=O)C=CC(C)=CC1COC1OC(C)C(OC(=O)COc2ccccc2)C(OC(=O)COc2ccccc2)C1OC (centres unmarked)	25
CCC1OC(=O)CC(O)C(C)C(OC2OC(C)C(OC3CC(C)(O)C(O)C(C)O3)C(N(C)C)C2O)C(CC=O)CC(C)C(=O)C=CC(C)=CC1COC1OC(C)C2OC(=O)OC2C1OC (centres unmarked) [Compound 49, Macrocin-3'",4'"-Carbonate Derivative]	50
CCC1OC(=O)CC(O)C(C)C(OC2OC(C)C(O)C(N(C)C)C2OC(C)=O)C(CC=O)CC(C)C(=O)C=CC(C)=CC1COC1OC(C)C(OC(=O)Cc2ccccc2)C(O)C1OC (centres unmarked)	12.5

Next up:
Item CCC1OC(=O)CC(O)C(C)C(OC2OC(C)C(O)C(N(C)C)C2O)C(CC=O)CC(C)C(=O)C=CC(C)=CC1COC1OC(C)C(O)C(OC(=O)Cc2ccccc2)C1OC (centres unmarked) has what recorded MIC?
25

###

Entries and their MIC values follow.
- Tested on: Staphylococcus aureus 19C
- experiment.summary: broth-dilution microtiter MIC test
- Type: cell-based
- condition.notes: Staphylococcus aureus, 19C
# value in µg/mL; strip the unit string

compound	experimental.endpoint	number
CCC1OC(=O)CC(O)C(C)C(OC2OC(C)C(OC3CC(C)(O)C(O)C(C)O3)C(N(C)C)C2O)C(CC=O)CC(C)C(=O)C=CC(C)=CC1COC1OC(C)C(OC(=O)Cc2ccccc2)C(O)C1OC (centres unmarked)	MIC	1.56

Next up:
Item CCC1OC(=O)CC(O)C(C)C(OC2OC(C)C(OC3CC(C)(O)C(O)C(C)O3)C(N(C)C)C2OC(C)=O)C(CC=O)CC(C)C(=O)C=CC(C)=CC1COC1OC(C)C(OC(=O)CC(C)C)C(O)C1OC (centres unmarked) has what recorded MIC?
3.12

###

Entries and their MIC values follow.
- Tested on: Staphylococcus aureus X400
- experiment.summary: standard agar-dilution MIC assay
- Assay type: cell-based
- condition.notes: Staphylococcus aureus, X400

compound	target.under.test	MIC
CCC1OC(=O)CC(O)C(C)C(OC2OC(C)C(O)C(N(C)C)C2O)C(CCOc2ccccc2)CC(C)C(=O)C=CC(C)=CC1COC1OC(C)C2OC(=O)OC2C1OC (stereo not drawn)	Staphylococcus aureus X400	1 µg/mL

Item CCC1OC(=O)CC(O)C(C)C(OC2OC(C)C(O)C(N(C)C)C2OC(C)=O)C(CC=O)CC(C)C(=O)C=CC(C)=CC1COC1OC(C)C(OC(C)=O)C(OC(C)=O)C1OC (stereo not drawn) has what recorded MIC?
4 µg/mL

Item CCC1OC(=O)CC(O)C(C)C(OC2OC(C)C(OC(C)=O)C(N(C)C)C2OC(C)=O)C(CCOc2ccccc2)CC(C)C(=O)C=CC(C)=CC1COC1OC(C)C=CC1OC (stereo not drawn) has what recorded MIC?
0.5 µg/mL
